- RUN DESCRIPTION: Volume of distribution at steady state in rat at 1 mg/kg, iv
- Format: ADME, organism-based
- Set-up: dose 1 mg/kg, route intravenous
- STATED CONDITIONS: in vivo, read-out: Vdss
READOUT LABEL: Vd (L/kg)
Give the value, in units of L/kg, as a plain number.

Query block: Give the value of Vd reported for the following: "Cc1nc2sc(C(=O)NCc3ccncc3)c(N)c2c(C)c1Cl"
Result block: 2.6

###

Parameter: EC50. Scope: all listed entries.
- SUBJECT OF TEST: Muscarinic acetylcholine receptor M4 (Rattus norvegicus)
- Sequence (P08485 whole entry): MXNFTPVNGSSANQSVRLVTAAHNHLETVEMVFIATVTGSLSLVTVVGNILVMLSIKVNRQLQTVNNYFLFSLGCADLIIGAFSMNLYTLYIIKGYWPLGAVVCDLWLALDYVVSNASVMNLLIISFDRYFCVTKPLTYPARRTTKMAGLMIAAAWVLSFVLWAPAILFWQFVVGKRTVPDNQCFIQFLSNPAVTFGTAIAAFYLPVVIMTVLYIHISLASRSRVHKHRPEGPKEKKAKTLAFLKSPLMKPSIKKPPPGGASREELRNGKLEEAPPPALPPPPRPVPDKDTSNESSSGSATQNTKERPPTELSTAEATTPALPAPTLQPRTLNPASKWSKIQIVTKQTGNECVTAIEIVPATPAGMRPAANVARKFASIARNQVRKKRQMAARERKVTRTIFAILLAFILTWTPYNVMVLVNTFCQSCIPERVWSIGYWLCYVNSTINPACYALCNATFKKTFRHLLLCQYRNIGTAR
- RUN DESCRIPTION: Positive allosteric modulation of rat muscarinic M4 receptor assessed as acetylcholine response
Give the value, in units of µM, as a plain number.

# example entries with known answers
Cc1nc2sc(C(=O)NCc3ccncc3)c(N)c2c(C)c1Cl = 0.176
Cc1nc2sc(C(=O)NC3CC3)c(N)c2c(C)c1Cl = 0.147

Query block: Give the value of EC50 reported for the following: "Cc1cc(OCc2ccncc2)nc2sc(C(=O)NCc3cccc(F)c3F)c(N)c12"
Result block: 0.9
